Reference source for all entries: the supplement of paper PMC11451515

Would you kindly list cell viability for each of these compounds?
# System: NOMO1
# assay-explanation: cell viability relative to DMSO control; higher = less cytotoxic
# experimental-setup: HPLM + 10% dialyzed FBS; 48 h; 0.000781 µM
One number for each entry, in %.

O=C(O)c1cccnc1Nc1cccc(C(F)(F)F)c1; 112
CCCNC(=O)Nc1ccc(Oc2ncnc3cc(OC)c(OC)cc23)cc1Cl; 96.9
C[C@@H](CN1CC(=O)NC(=O)C1)N1CC(=O)NC(=O)C1; 112
CN(C)CC(C)(C)CNc1nn2c(-c3ccccc3)nnc2cc1C1CCC1; 113

Here is the next item to consider.
**Query** I'd like to know its cell viability. The compound in question is `CC(C)OC(=O)[C@H](C)N[P@](=O)(OC[C@H]1O[C@@H](N2\C=C/C(=O)NC2=O)[C@](C)(F)[C@@H]1O)OC3=CC=CC=C3`
**Result** 115

====

# System: SEM cells
# assay-explanation: cell viability relative to DMSO control; higher = less cytotoxic
# experimental-setup: RPMI 5 mM glucose + 10% dialyzed FBS; 48 h; 0.0632 µM
Please provide measured cell viability for the entries that follow.
Answers are plain numbers, in %.

Reference set, count: 4
CC[C@H]1OC(=O)[C@H](C)C(=O)[C@H](C)[C@@H](O[C@H]2O[C@H](C)C[C@H](N(C)C)[C@H]2O)[C@](C)(OC)C[C@@H](C)C(=O)[C@H](C)[C@H]2N(CCCCn3cnc(-c4cccnc4)c3)C(=O)O[C@]12C; 135
COc1cccc2c1C(=O)c1c(O)c3c(c(O)c1C2=O)C[C@@](O)(C(=O)CO)C[C@@H]3O[C@H]1C[C@H](N)[C@H](O)[C@H](C)O1; 101
NC(=O)c1ccc(N(C(N)=O)c2c(F)cccc2F)nc1-c1ccc(F)cc1F; 93.2
C[C@]12CC[C@H]3[C@@H](CCC4=CC(=O)CC[C@@H]43)[C@@H]1CC[C@@H]2OC(=O)CCc1ccccc1; 112

Consider the record given below.
**Query** Test system SEM cells; read-out cell viability; what value for `CC(C)(O)CC(=O)NCCn1ccc2ncnc(Nc3ccc(Oc4cccc(C(F)(F)F)c4)c(Cl)c3)c21` ?
**Result** 109

====

# Tested on: SEM cells
# assay-explanation: cell viability relative to DMSO control; higher = less cytotoxic
# experimental-setup: RPMI 5 mM glucose + 10% dialyzed FBS; 48 h; 0.00702 µM
property-label: cell viability (%)
Answers are plain numbers, in %.

COc1cccc2c1C(=O)c1c(O)c3c(c(O)c1C2=O)C[C@@](O)(C(=O)CO)C[C@@H]3O[C@H]1C[C@H](N)[C@H](O)[C@H](C)O1; 108

Batch request: cell viability per item, same order as input.
1. Cc1csc(-c2nnc(Nc3ccc(Oc4ncccc4-c4ccnc(N)n4)cc3)c3ccccc23)c1
2. Cc1cc2c(C(N)=O)cccc2n1-c1nc2c(c(NCc3ccccc3)n1)COCC2
3. Cc1ccccc1C(=O)Nc1ccc(C(=O)N2CCCC(O)c3cc(Cl)ccc32)c(C)c1 (centres undefined)
4. CC[C@@H]([C@H](C)O)n1ncn(-c2ccc(N3CCN(c4ccc(OCC5CO[C@@](Cn6cncn6)(c6ccc(F)cc6F)C5)cc4)CC3)cc2)c1=O (some centres undefined)
5. O=C(O)C(=O)c1cn(Cc2ccccc2)c2ccc(-c3ccc(OC(F)(F)F)cc3)cc12
6. COc1c(C)c2c(c(O)c1C/C=C(\C)CCC(=O)O)C(=O)OC2
7. COc1ccc2c(c1)CN(C)CC2c1ccc(Cl)c(Cl)c1 (centres undefined)

**Result**
115
85.5
112
108
102
115
133

// input: 2 molecules below; output: cell viability for each
1. Cc1ccc([S+](=O)([O-])OCC(=O)Nc2ccc(C(=O)O)c(O)c2)cc1
2. CC(C)OC(=O)[C@H](C)N[P@](=O)(OC[C@H]1O[C@@H](N2\C=C/C(=O)NC2=O)[C@](C)(F)[C@@H]1O)OC3=CC=CC=C3

**Result**
134
106

# return cell viability for each item in the list
1. COc1cc[nH]c2ncc(C(=O)C(=O)N3CCN(C(=O)c4ccccc4)C[C@H]3C)c1-2
2. CNc1nc(Nc2cnn([C@H]3CCN(C4COC4)C[C@@H]3F)c2Cl)ncc1C(F)(F)F
3. CCCNC(=O)Nc1ccc(Oc2ncnc3cc(OC)c(OC)cc23)cc1Cl
4. O=C(O)c1cccnc1Nc1cccc(C(F)(F)F)c1

**Result**
[129, 112, 104, 110]

====

# System: NOMO1
# assay-explanation: cell viability relative to DMSO control; higher = less cytotoxic
# experimental-setup: RPMI 5 mM glucose + 10% dialyzed FBS; 48 h; 15.4 µM
I'd be grateful if you could share measured cell viability for these entries.
Give bare numbers, in %.

Hi there! I need cell viability for each item below, if you can.
1. CC[C@H]1OC(=O)[C@H](C)C(=O)[C@H](C)[C@@H](O[C@H]2O[C@H](C)C[C@H](N(C)C)[C@H]2O)[C@](C)(OC)C[C@@H](C)C(=O)[C@H](C)[C@H]2N(CCCCn3cnc(-c4cccnc4)c3)C(=O)O[C@]12C
2. COc1c(C)c2c(c(O)c1C/C=C(\C)CCC(=O)O)C(=O)OC2
3. NC[C@H]1O[C@H](O[C@@H]2[C@H](O)[C@@H](O[C@H]3O[C@H](CO)[C@@H](O)[C@H](N)[C@H]3O)[C@H](N)C[C@@H]2N)[C@H](O)[C@@H](O)[C@@H]1O
4. Cc1csc(-c2nnc(Nc3ccc(Oc4ncccc4-c4ccnc(N)n4)cc3)c3ccccc23)c1
5. COc1ccc(C(=O)CC2(O)C(=O)Nc3c(Cl)ccc(Cl)c32)cc1 (stereo unspecified)
6. COc1cc[nH]c2ncc(C(=O)C(=O)N3CCN(C(=O)c4ccccc4)C[C@H]3C)c1-2
7. COc1cccc2c1C(=O)c1c(O)c3c(c(O)c1C2=O)C[C@@](O)(C(=O)CO)C[C@@H]3O[C@H]1C[C@H](N)[C@H](O)[C@H](C)O1
8. CN1\C=N/C2=CC=C(NC3=CC(=CC=C3C)NC(=O)C4=CC(=CC=C4)C(C)(C)C#N)C=C2C1=O

**Result**
[107, 58, 106, 84.1, 26.6, 103, 34.3, 46.3]

For every listed record, write down its cell viability.
1. COC1=CC=C(C(=C1)OC(C)C)C/2=N/[C@@H]([C@@H](N2C(=O)N3CCNC(=O)C3)C4=CC=C(Cl)C=C4)C5=CC=C(Cl)C=C5
2. N[C@@H]1CONC1=O

**Result**
[70.3, 89.9]

**Query** State the recorded cell viability for this entry: `CCCCCCCCCCCCCC(=O)N[C@H](CO)[C@H](O)c1ccc([N+](=O)[O-])cc1`
**Result** 4.12

====

# Test system: NOMO1
# assay-explanation: cell viability relative to DMSO control; higher = less cytotoxic
# experimental-setup: RPMI 5 mM glucose + 10% dialyzed FBS; 48 h; 0.0211 µM
Answer each item with its documented cell viability.
Give bare numbers, in %.

COc1c(C)c2c(c(O)c1C/C=C(\C)CCC(=O)O)C(=O)OC2; 97.3
CCOC(=O)C(C)OC1=CC=CC2=C1\C=C/N(CC(=O)NC3=CC=C4OCCOC4=C3)C2=O (centres undefined); 92.2
CC[C@H]1OC(=O)[C@H](C)C(=O)[C@H](C)[C@@H](O[C@H]2O[C@H](C)C[C@H](N(C)C)[C@H]2O)[C@](C)(OC)C[C@@H](C)C(=O)[C@H](C)[C@H]2N(CCCCn3cnc(-c4cccnc4)c3)C(=O)O[C@]12C; 109
Cc1cccc(Nc2ccncc2[S+](=O)([O-])NC(=O)NC(C)C)c1; 94.1

Hi, could you look up cell viability for each item in my list?
1. CCCCCCCCCCCCCC(=O)N[C@H](CO)[C@H](O)c1ccc([N+](=O)[O-])cc1
2. COC(=O)C\1=C(C)\N\C(=C(/C1C2=CC=CC3=NON=C23)C(=O)OC(C)C)C (centres undefined)
3. CC12CC3CC(C)(C1)CC(N)(C3)C2
4. C[C@]12CC[C@H]3[C@@H](CCC4=CC(=O)CC[C@@H]43)[C@@H]1CC[C@@H]2OC(=O)CCc1ccccc1
5. Cc1ccc([S+](=O)([O-])OCC(=O)Nc2ccc(C(=O)O)c(O)c2)cc1
6. CC(C)OC(=O)[C@H](C)N[P@](=O)(OC[C@H]1O[C@@H](N2\C=C/C(=O)NC2=O)[C@](C)(F)[C@@H]1O)OC3=CC=CC=C3
7. CN(C)CC(C)(C)CNc1nn2c(-c3ccccc3)nnc2cc1C1CCC1

**Result**
1: 90.6; 2: 108; 3: 111; 4: 124; 5: 121; 6: 130; 7: 105

====

# Test system: SEM cells
# assay-explanation: cell viability relative to DMSO control; higher = less cytotoxic
# experimental-setup: HPLM + 10% dialyzed FBS; 48 h; 0.00234 µM
property-label: cell viability (%)
One number for each entry, in %.

Guide cases for cell viability, answers given:
COc1ccc2c(c1)[C@]13CCCCC1C(C2)N(C)CC3 (stereo not given in full); 116
CCCCCCCCCCCCCC(=O)N[C@H](CO)[C@H](O)c1ccc([N+](=O)[O-])cc1; 81.4
CNCC[C@H](Oc1cccc2ccccc12)c1cccs1; 128
CN1CCCN(CC1)C2=CC=C3C(=O)\C(=C/4SC5=C(C=CC=C5)N4C3=N2)C(=O)NCC6=CN=C(C)C=N6; 102
Cc1ccnc2c1NC(=O)c1cccnc1N2C1CC1; 84.2
CCOC(=O)\C1=C\[C@]2(CC)CCCN3CCC4=C([C@H]23)[N]1C5=C4C=CC=C5; 100
NC[C@H]1O[C@H](O[C@@H]2[C@H](O)[C@@H](O[C@H]3O[C@H](CO)[C@@H](O)[C@H](N)[C@H]3O)[C@H](N)C[C@@H]2N)[C@H](O)[C@@H](O)[C@@H]1O; 93.3
O=C(c1ccccc1)c1ccc2n1CCC2C(=O)O (stereo not given); 118

List the reported cell viability of each molecule below.
1. Cc1csc(-c2nnc(Nc3ccc(Oc4ncccc4-c4ccnc(N)n4)cc3)c3ccccc23)c1
2. c1nc2c(NC3CCCCC3)nc(Nc3ccc(N4CCOCC4)cc3)nc2[nH]1

**Result**
1. 114
2. 118
